- assayTarget: mouse melanocortin-5 receptor (mouse, UniProt P41149 1-325)
- Sequence (P41149 whole entry): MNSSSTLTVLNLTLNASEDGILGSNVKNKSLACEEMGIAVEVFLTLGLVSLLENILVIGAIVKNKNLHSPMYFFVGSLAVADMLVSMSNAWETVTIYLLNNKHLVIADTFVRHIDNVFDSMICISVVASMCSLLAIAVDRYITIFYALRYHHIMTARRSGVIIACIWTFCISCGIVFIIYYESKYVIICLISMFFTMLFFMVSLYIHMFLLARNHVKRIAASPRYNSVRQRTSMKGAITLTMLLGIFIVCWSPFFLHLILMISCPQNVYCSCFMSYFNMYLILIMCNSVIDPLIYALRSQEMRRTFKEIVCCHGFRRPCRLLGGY
- assay: cell-based or functional assay
Square brackets hold non-standard residues; d marks the D form.
Listed here are binders together with their documented inverse agonist apparent potency.
The figure you give is taken to be in nM; do not add the unit.

cyclo(PRFFWAF[dP]) (SMILES C[C@@H]1NC(=O)[C@H](Cc2c[nH]c3ccccc23)NC(=O)[C@H](Cc2ccccc2)NC(=O)[C@H](Cc2ccccc2)NC(=O)[C@H](CCCNC(=N)N)NC(=O)[C@@H]2CCCN2C(=O)[C@H]2CCCN2C(=O)[C@H](Cc2ccccc2)NC1=O) [c[Pro-Arg-Phe-Phe-Trp-Ala-Phe-DPro]]    150
cyclo(PRFFEAF[dP]) [c[Pro-Arg-Phe-Phe-Glu-Ala-Phe-DPro]]    700
cyclo(PRFFAAF[dP]) [c[Pro-Arg-Phe-Phe-Ala-Ala-Phe-DPro]]    250

Name the recorded inverse agonist apparent potency for PRFFXAFP (head-to-tail cyclic; Abu at 5; DPro at 8) [c[Pro-Arg-Phe-Phe-Abu-Ala-Phe-DPro]] . 160

Given PRFFXAFP (head-to-tail cyclic; Dap at 5; DPro at 8) [c[Pro-Arg-Phe-Phe-Dap-Ala-Phe-DPro]] , state its recorded inverse agonist apparent potency. 60

For the binder cyclo(PRFFVAF[dP]) [c[Pro-Arg-Phe-Phe-Val-Ala-Phe-DPro]] , what inverse agonist apparent potency is on record? 510

Consider the binder cyclo(PRFFTAF[dP]) (SMILES C[C@@H]1NC(=O)[C@H]([C@@H](C)O)NC(=O)[C@H](Cc2ccccc2)NC(=O)[C@H](Cc2ccccc2)NC(=O)[C@H](CCCNC(=N)N)NC(=O)[C@@H]2CCCN2C(=O)[C@H]2CCCN2C(=O)[C@H](Cc2ccccc2)NC1=O) [c[Pro-Arg-Phe-Phe-Thr-Ala-Phe-DPro]] and give its measured inverse agonist apparent potency. 50

Consider the binder PRFFXAFP (head-to-tail cyclic; DDap at 5; DPro at 8) [c[Pro-Arg-Phe-Phe-DDap-Ala-Phe-DPro]] and give its measured inverse agonist apparent potency. 110

Would you mind telling me what inverse agonist apparent potency value was observed for cyclo(PRFFSAF[dP]) [c[Pro-Arg-Phe-Phe-Ser-Ala-Phe-DPro]] ? 140

Quick one: inverse agonist apparent potency of cyclo(PRFFHAF[dP]) (SMILES C[C@@H]1NC(=O)[C@H](Cc2c[nH]cn2)NC(=O)[C@H](Cc2ccccc2)NC(=O)[C@H](Cc2ccccc2)NC(=O)[C@H](CCCNC(=N)N)NC(=O)[C@@H]2CCCN2C(=O)[C@H]2CCCN2C(=O)[C@H](Cc2ccccc2)NC1=O) [c[Pro-Arg-Phe-Phe-His-Ala-Phe-DPro]] ? 10

Field request: inverse agonist apparent potency | item: cyclo(PRFFLAF[dP]) (SMILES CC(C)C[C@@H]1NC(=O)[C@H](Cc2ccccc2)NC(=O)[C@H](Cc2ccccc2)NC(=O)[C@H](CCCNC(=N)N)NC(=O)[C@@H]2CCCN2C(=O)[C@H]2CCCN2C(=O)[C@H](Cc2ccccc2)NC(=O)[C@H](C)NC1=O) [c[Pro-Arg-Phe-Phe-Leu-Ala-Phe-DPro]] 110

Values were extracted from patent US20200115416A1.
